# System: CCRF-CEM
# Test name: in vitro leukemia cell growth inhibition (NCI screen)
Measured cytotoxicity log GI50 accompanies every entry in the list below.
Measured metric: cytotoxicity log GI50 (M)

>>> recorded_result("Cc1ccc(Cn2c(C)nc3c2C(=O)c2ccccc2C3=O)cc1 [Compound 17]")
-5.70
>>> recorded_result("CCn1c(CCl)nc2c1C(=O)c1ccccc1C2=O [Compound 22]")
-6.76
>>> recorded_result("CCn1c(Cc2ccc(F)cc2)nc2c1C(=O)c1ccccc1C2=O [Compound 66]")
-5.08
>>> recorded_result("O=C(NC1=C(Cl)C(=O)c2ccccc2C1=O)c1ccc(F)cc1 [Compound 2f]")
-6.10
>>> recorded_result("Cc1nc2c(n1CCC(C)C)C(=O)c1ccccc1C2=O [Compound 11]")
-4.87
>>> recorded_result("O=C(O)CCCc1nc2c(n1-c1ccccc1)C(=O)c1ccccc1C2=O [Compound 58]")
-4.39
>>> recorded_result("COc1ccc(-n2c(CCCC(=O)O)nc3c2C(=O)c2ccccc2C3=O)cc1 [Compound 59]")
-4.44
>>> recorded_result("CC(=O)NC1=C(NCC(C)C)C(=O)c2ccccc2C1=O [Compound 31]")
-5.14
>>> recorded_result("COc1cc(OC)cc(C(=O)NC2=C(Cl)C(=O)c3ccccc3C2=O)c1 [Compound 2h]")
-6.70

###

List of cytotoxicity log GI50 values.
# Tested on: K-562
# Test name: in vitro leukemia cell growth inhibition (NCI screen)
Measured metric: cytotoxicity log GI50 (M)

>>> recorded_result("O=C(Cc1ccccc1F)NC1=C(Cl)C(=O)c2ccccc2C1=O")
-6.53
>>> recorded_result("CCC(C)Cn1c(C)nc2c1C(=O)c1ccccc1C2=O (centres unmarked)")
-5.27
>>> recorded_result("COc1cc(OC)cc(C(=O)NC2=C(Cl)C(=O)c3ccccc3C2=O)c1")
-6.39
>>> recorded_result("COc1ccc(C(=O)NC2=C(Cl)C(=O)c3ccccc3C2=O)cc1")
-5.85
>>> recorded_result("Cc1nc2c(n1Cc1ccc(Cl)cc1)C(=O)c1ccccc1C2=O")
-5.69

###

# System: M14
# Test name: in vitro melanoma cell growth inhibition (NCI screen)
cytotoxicity log GI50 overview
Measured metric: cytotoxicity log GI50 (M)

>>> recorded_result("O=C1c2ccccc2C(=O)c2[nH]c(Cc3ccc(F)cc3)nc21 [Compound 4c]")
-4.82
>>> recorded_result("CCn1c(-c2ccccc2)nc2c1C(=O)c1ccccc1C2=O [Compound 25]")
-4.81
>>> recorded_result("COC(=O)CCC(=O)NC1=C(Nc2ccc(OC)cc2)C(=O)c2ccccc2C1=O [Compound 56]")
-5.22
>>> recorded_result("CC(=O)NC1=C(NC(C)(C)C)C(=O)c2ccccc2C1=O [Compound 32]")
-4.77
>>> recorded_result("O=C(Cc1ccccc1F)NC1=C(Cl)C(=O)c2ccccc2C1=O [Compound 2i]")
-6.29
>>> recorded_result("O=C(O)CCCc1nc2c(n1-c1ccccc1)C(=O)c1ccccc1C2=O [Compound 58]")
-4.72
>>> recorded_result("COc1ccc(-n2c(CCCC(=O)O)nc3c2C(=O)c2ccccc2C3=O)cc1 [Compound 59]")
-4.81
>>> recorded_result("CCNC1=C(NC(=O)c2ccc(OC)cc2)C(=O)c2ccccc2C1=O [Compound 49]")
-4.67
>>> recorded_result("CC(=O)NC1=C(NCCCl)C(=O)c2ccccc2C1=O [Compound 43]")
-4.89

// provenance: patent US5789431A
